target: FZD8 (frizzled-8) cysteine-rich domain, FZD8CRD (Mus musculus); construct: Extracellular CRD A28-R153, pHL-Avi3, BirA-biotinylated, secreted from HEK293T, immobilized on streptavidin SPR chip; assay: crystal structure at […] Å (N49E/N152E construct); SPR Kd on biotinylated FZD8CRD (A28-R153)
Sequence (Q61091 28-153): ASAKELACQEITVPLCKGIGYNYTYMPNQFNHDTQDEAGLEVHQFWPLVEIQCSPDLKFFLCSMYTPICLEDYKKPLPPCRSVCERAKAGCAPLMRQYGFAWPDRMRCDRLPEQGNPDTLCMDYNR
experimental-endpoint: Kd

[[record]]
compound = "NC(=O)N1c2ccccc2C=Cc2ccccc21 [compound 79, 5H-dibenzo[b,f]azepine-5-carboxamide]"
reported_result = "17 µM"


Hello, the source for this data is paper PMC7104226, in case you need it.
